experimental.details: AUC (0 to t) in female Sprague-Dawley rat at 1000 mg/kg, po measured on day 14
Format: ADME, organism-based
Set-up: dose 1000 mg/kg, route oral
test.parameters: plasma
outcome.measure: AUC(0-t) (ng·h/mL)
Report the figure in ng·h/mL without appending any unit label.

### Prompt # input compound: `COCCOCn1ccc(NC(=O)c2cc(Oc3ccc(S(C)(=O)=O)cc3)cc(-c3ncccc3C)c2)n1` ; wanted: its AUC(0-t)
### Response 24000

###

experimental.details: Metabolic stability in dog liver microsomes assessed as compound remaining after 1 hr relative to control
Format: ADME, Canis lupus familiaris
test.parameters: read-out: Stability
outcome.measure: remaining at 1 h

### Prompt Entry `COCCOCn1ccc(NC(=O)c2cc(Oc3ccc(S(C)(=O)=O)cc3)cc(-c3ncccc3C)c2)n1` : reported remaining at 1 h = ?
### Response > 60%

###

experimental.details: Cmax in female Sprague-Dawley rat at 250 mg/kg, po measured on day 14
Format: ADME, organism-based
Design: dose 250 mg/kg, route oral
test.parameters: in vivo
outcome.measure: Cmax (ng/mL)
Numbers only; they are read as ng/mL.

### Prompt Please look up its Cmax: `COCCOCn1ccc(NC(=O)c2cc(Oc3ccc(S(C)(=O)=O)cc3)cc(-c3ncccc3C)c2)n1`
### Response 5200

###

experimental.details: Tmax in female Sprague-Dawley rat at 1000 mg/kg, po measured on day 1
Assay type: ADME, organism-based
Parameters: dose 1000 mg/kg, route oral
test.parameters: in vivo
outcome.measure: Tmax (h)
Reply with just the number (in h).

### Prompt Return reported Tmax; argument: `COCCOCn1ccc(NC(=O)c2cc(Oc3ccc(S(C)(=O)=O)cc3)cc(-c3ncccc3C)c2)n1`
### Response 2.7

###

experimental.details: Cmax in female Sprague-Dawley rat at 1000 mg/kg, po measured on day 14
Format: ADME, organism-based
Parameters: dose 1000 mg/kg, route oral
test.parameters: in vivo
outcome.measure: Cmax (ng/mL)
State just the number; it will be interpreted in ng/mL.

### Prompt What does the record list as Cmax for `COCCOCn1ccc(NC(=O)c2cc(Oc3ccc(S(C)(=O)=O)cc3)cc(-c3ncccc3C)c2)n1` ?
### Response 5210

###

experimental.details: AUC (0 to t) in female Sprague-Dawley rat at 250 mg/kg, po measured on day 1
Assay type: ADME, organism-based
Parameters: dose 250 mg/kg, route oral
test.parameters: plasma
outcome.measure: AUC(0-t) (ng·h/mL)
Quick note: give the figure in ng·h/mL, leave out the unit.

### Prompt For the compound `COCCOCn1ccc(NC(=O)c2cc(Oc3ccc(S(C)(=O)=O)cc3)cc(-c3ncccc3C)c2)n1` , what AUC(0-t) is on record?
### Response 13700

###

experimental.details: Cmax in male Sprague-Dawley rat at 1000 mg/kg, po measured on day 14
Format: ADME, organism-based
Set-up: dose 1000 mg/kg, route oral
test.parameters: in vivo
outcome.measure: Cmax (ng/mL)
Hi! Could you send only the number? It should be in ng/mL, unit omitted.

### Prompt Give its Cmax value. Item: `COCCOCn1ccc(NC(=O)c2cc(Oc3ccc(S(C)(=O)=O)cc3)cc(-c3ncccc3C)c2)n1`
### Response 3090

###

experimental.details: Cmax in male Sprague-Dawley rat at 500 mg/kg, po measured on day 1
Type: ADME, organism-based
Design: dose 500 mg/kg, route oral
test.parameters: in vivo
outcome.measure: Cmax
State the value, then name its unit.

### Prompt Recorded Cmax of `COCCOCn1ccc(NC(=O)c2cc(Oc3ccc(S(C)(=O)=O)cc3)cc(-c3ncccc3C)c2)n1` , please.
### Response 4100 ng/mL

###

experimental.details: Metabolic stability in human liver microsomes assessed as compound remaining after 1 hr relative to control
Type: ADME
test.parameters: read-out: Stability
outcome.measure: remaining at 1 h

### Prompt What value of measured remaining at 1 h is listed for `COCCOCn1ccc(NC(=O)c2cc(Oc3ccc(S(C)(=O)=O)cc3)cc(-c3ncccc3C)c2)n1` ?
### Response > 60%

###

experimental.details: Volume of distribution at steady state in Sprague-Dawley rat at 3 mg/kg, iv and 10 mg/kg, po
Type: ADME, organism-based
test.parameters: in vivo, read-out: Vdss
outcome.measure: Vd (L/kg)
Use L/kg as the unit, but write only the number.

### Prompt State the recorded Vd for this entry: `COCCOCn1ccc(NC(=O)c2cc(Oc3ccc(S(C)(=O)=O)cc3)cc(-c3ncccc3C)c2)n1`
### Response 0.21

###

experimental.details: Tmax in male Sprague-Dawley rat at 250 mg/kg, po measured on day 14
Format: ADME, organism-based
Parameters: dose 250 mg/kg, route oral
test.parameters: in vivo
outcome.measure: Tmax (h)
Please reply with the bare figure in h and do not write the unit itself.

### Prompt I have this compound here, `COCCOCn1ccc(NC(=O)c2cc(Oc3ccc(S(C)(=O)=O)cc3)cc(-c3ncccc3C)c2)n1` , and I need its recorded Tmax.
### Response 3

###

experimental.details: Cmax in female Sprague-Dawley rat at 1000 mg/kg, po measured on day 1
Assay type: ADME, organism-based
Parameters: dose 1000 mg/kg, route oral
test.parameters: in vivo
outcome.measure: Cmax

### Prompt Which Cmax value is on record for `COCCOCn1ccc(NC(=O)c2cc(Oc3ccc(S(C)(=O)=O)cc3)cc(-c3ncccc3C)c2)n1` ?
### Response 7590 ng/mL

###

experimental.details: Cmax in female Sprague-Dawley rat at 250 mg/kg, po measured on day 1
Type: ADME, organism-based
Parameters: dose 250 mg/kg, route oral
test.parameters: in vivo
outcome.measure: Cmax (ng/mL)
# unit: ng/mL | format: bare number

### Prompt Entry `COCCOCn1ccc(NC(=O)c2cc(Oc3ccc(S(C)(=O)=O)cc3)cc(-c3ncccc3C)c2)n1` has what Cmax?
### Response 3450

###

experimental.details: Tmax in ICR mouse at 3 mg/kg, iv and 10 mg/kg, po
Format: ADME, organism-based
test.parameters: in vivo
outcome.measure: Tmax (min)
Give the value in min but do not write min after it.

### Prompt Field request: Tmax | item: `COCCOCn1ccc(NC(=O)c2cc(Oc3ccc(S(C)(=O)=O)cc3)cc(-c3ncccc3C)c2)n1`
### Response 15

###

experimental.details: Clearance in Sprague-Dawley rat at 3 mg/kg, iv and 10 mg/kg, po
Assay type: ADME, organism-based
test.parameters: in vivo
outcome.measure: clearance (mL/min/kg)
Give the value, in units of mL/min/kg, as a plain number.

### Prompt Returns the measured clearance for the input compound. Input: `COCCOCn1ccc(NC(=O)c2cc(Oc3ccc(S(C)(=O)=O)cc3)cc(-c3ncccc3C)c2)n1`
### Response 9.83

###

system.tested: Cytochrome P450 2C9 (Homo sapiens)
Sequence (P11712 whole entry): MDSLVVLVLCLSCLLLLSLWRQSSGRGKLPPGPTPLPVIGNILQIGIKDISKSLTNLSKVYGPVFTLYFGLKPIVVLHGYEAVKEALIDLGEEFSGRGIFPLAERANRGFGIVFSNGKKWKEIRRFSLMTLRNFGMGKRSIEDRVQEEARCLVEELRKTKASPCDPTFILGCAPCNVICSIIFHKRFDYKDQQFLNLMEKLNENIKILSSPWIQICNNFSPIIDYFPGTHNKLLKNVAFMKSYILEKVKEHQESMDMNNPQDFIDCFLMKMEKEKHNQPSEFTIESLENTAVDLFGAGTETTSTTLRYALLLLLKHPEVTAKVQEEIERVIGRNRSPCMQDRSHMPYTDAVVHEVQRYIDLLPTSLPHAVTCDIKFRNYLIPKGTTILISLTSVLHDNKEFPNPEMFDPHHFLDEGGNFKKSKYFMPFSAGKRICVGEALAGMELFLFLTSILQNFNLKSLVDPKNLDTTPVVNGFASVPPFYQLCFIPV
outcome.measure: pIC50
Remember, pIC50 is on a log scale: it is -log10 of the molar concentration.

### Prompt Reported pIC50, compound `COCCOCn1ccc(NC(=O)c2cc(Oc3ccc(S(C)(=O)=O)cc3)cc(-c3ncccc3C)c2)n1` : ____
### Response 5.28

###

experimental.details: Clearance in ICR mouse at 3 mg/kg, iv and 10 mg/kg, po
Format: ADME, organism-based
test.parameters: in vivo
outcome.measure: clearance (mL/min/kg)
// note: answer is a bare numeric in mL/min/kg

### Prompt Would you mind telling me what clearance value was observed for `COCCOCn1ccc(NC(=O)c2cc(Oc3ccc(S(C)(=O)=O)cc3)cc(-c3ncccc3C)c2)n1` ?
### Response 3.33

###

experimental.details: Elimination half life in Sprague-Dawley rat at 3 mg/kg, iv and 10 mg/kg, po
Format: ADME, organism-based
test.parameters: in vivo, read-out: beta t1/2 (converted)
outcome.measure: half-life (min)
Response body: numeric value in min, unit text excluded.

### Prompt Entry `COCCOCn1ccc(NC(=O)c2cc(Oc3ccc(S(C)(=O)=O)cc3)cc(-c3ncccc3C)c2)n1` : reported half-life = ?
### Response 18

###

experimental.details: Tmax in female Sprague-Dawley rat at 250 mg/kg, po measured on day 1
Type: ADME, organism-based
Parameters: dose 250 mg/kg, route oral
test.parameters: in vivo
outcome.measure: Tmax (h)
Please state the figure in h; there is no need to write the unit.

### Prompt Form field: reported Tmax of `COCCOCn1ccc(NC(=O)c2cc(Oc3ccc(S(C)(=O)=O)cc3)cc(-c3ncccc3C)c2)n1`
### Response 3.7

###

experimental.details: Metabolic stability in mouse liver microsomes assessed as compound remaining after 1 hr relative to control
Type: ADME
test.parameters: read-out: Stability
outcome.measure: remaining at 1 h

### Prompt Which remaining at 1 h value belongs to `COCCOCn1ccc(NC(=O)c2cc(Oc3ccc(S(C)(=O)=O)cc3)cc(-c3ncccc3C)c2)n1` ?
### Response > 60%

###

experimental.details: Mean residence time in ICR mouse at 3 mg/kg, iv and 10 mg/kg, po
Assay type: ADME, organism-based
test.parameters: in vivo
outcome.measure: MRT
Be sure to follow the number with its unit.

### Prompt Look at this molecule and give its reported MRT. `COCCOCn1ccc(NC(=O)c2cc(Oc3ccc(S(C)(=O)=O)cc3)cc(-c3ncccc3C)c2)n1`
### Response 55.2 min

Provenance of the data: ChEMBL document CHEMBL3232870
